Kindly supply the reported EC50 values for the records listed here.
# assayed target: Wnt-responsive promoter (TCF/LEF)
# run description: Wnt-dependent luciferase reporter assay
Where a SMILES comes first, the peptide text is derived from it.

Here's what some known entries look like.
CCOC[C@H](NC(=O)[C@H](CO)NC(=O)[C@@H](NC(=O)[C@H](CC(C)C)NC(=O)[C@H](Cc1ccccc1)NC(=O)[C@H](Cc1c[nH]c2ccccc12)NC(=O)[C@H](CCSC)NC(=O)[C@H](CCCNC(=N)N)NC(=O)[C@H](CO)NC(=O)[C@@H](N)CCSC)[C@@H](C)CC)C(=O)N[C@@H](Cc1c[nH]c2ccccc12)C(=O)O [compound 105] (H-MSRMWFLISS(Et)W-OH)
7.5 to 15 µM
CC[C@H](C)[C@H](NC(=O)[C@H](CC(C)C)NC(=O)[C@@H](NC(=O)[C@H](Cc1c[nH]c2ccccc12)NC(=O)[C@H](CCSC)NC(=O)[C@@H](N)CCCNC(=N)N)[C@@H](C)CC)C(=O)N[C@@H](CS)C(=O)N[C@@H](Cc1ccccc1)C(=O)N[C@@H](Cc1c[nH]c2ccccc12)C(=O)NCC(=O)O [compound 115] (H-RMWILICFWG-OH)
15 to 22.5 µM
CC[C@H](C)[C@H](NC(=O)[C@H](CC(C)C)NC(=O)[C@H](Cc1ccccc1)NC(=O)[C@H](Cc1c[nH]c2ccccc12)NC(=O)[C@@H](N)CCSC)C(=O)N[C@@H](CS)C(=O)N[C@@H](C)C(=O)N[C@@H](Cc1c[nH]c2ccccc12)C(=O)NCC(=O)O [compound 211] (H-MWFLICAWG-OH)
< 7.5 µM
CCCCCC[C@H](N)C(=O)N[C@@H](Cc1c[nH]c2ccccc12)C(=O)N[C@@H](Cc1ccccc1)C(=O)N[C@@H](CC(C)C)C(=O)N[C@H](C(=O)N[C@@H](CS)C(=O)N[C@@H](Cc1ccccc1)C(=O)N[C@@H](Cc1c[nH]c2ccccc12)C(=O)NCC(=O)O)[C@@H](C)CC [compound 139] (HELM PEPTIDE1{[CCCCCC[C@H](N)C(=O)[*:2]].W.F.L.I.C.F.W.G}$$$$V2.0)
> 30 µM
CC[C@H](C)[C@H](NC(=O)[C@H](CC(C)C)NC(=O)[C@H](Cc1ccccc1)NC(=O)[C@H](Cc1c[nH]c2ccccc12)NC(=O)[C@H](CCSC)NC(=O)[C@H](CCCNC(=N)N)NC(=O)[C@H](CO)NC(=O)[C@@H](N)CCSC)C(=O)N[C@@H](CO)C(=O)N[C@@H](Cc1ccccc1)C(=O)N[C@@H](Cc1c[nH]c2ccccc12)C(=O)N[C@@H](CCSC)C(=O)NCC(=O)O [compound 14] (H-MSRMWFLISFWMG-OH)
< 7.5 µM

// next item, EC50 requested
For CC[C@H](C)[C@H](NC(=O)[C@H](CC(C)C)NC(=O)[C@H](Cc1ccccc1)NC(=O)[C@H](Cc1c[nH]c2ccccc12)NC(=O)[C@H](Cc1c[nH]c2ccccc12)NC(=O)[C@H](CCCNC(=N)N)NC(=O)[C@H](CO)NC(=O)[C@@H](N)CCSC)C(=O)N[C@@H](CO)C(=O)N[C@@H](Cc1ccccc1)C(=O)N[C@@H](Cc1c[nH]c2ccccc12)C(N)=O [compound 78] (H-MSRWWFLISFW-NH2) , write its EC50.
> 30 µM
